Where do the numbers come from? From PubChem BioAssay (NCI).

Test system: NCI-H23 lung
EXPERIMENTAL DETAILS: NCI tumour cell line growth inhibition, 48 h
ASSAY METRIC: TGI

*Q* # input compound: COc1cccc(-c2nc(N)c(C#N)c3c2CCS(=O)(=O)c2ccc(C)cc2-3)c1 ; wanted: its TGI
*A* > 100 µM

*Q* Next record, please: C=CCC(NCc1ccccc1)c1cn(C(=O)OCC)c2ccccc12 (stereo not given)
*A* 43.6 µM

*Q* Next record, please: CC(=O)O[C@H]1[C@@H](N2CCCCC2)C[C@H]2[C@@H]3CC=C4C[C@@H](N5CCCC5)CC[C@]4(C)[C@H]3CC[C@@]21C
*A* > 100 µM

*Q* Next record, please: COc1ccc(-n2c(C)nc3ccc(NC4OCC(OC(C)=O)C(OC(C)=O)C4OC(C)=O)cc3c2=O)cc1 (stereo not given)
*A* > 100 µM

*Q* Next record, please: Fc1nc(-c2c3ccccc3c3sc4ccccc4n23)nc(N2CCOCCOCCOCCOCC2)n1
*A* > 100 µM

*Q* Next record, please: NNC(=S)N/N=C(\c1nc2ccc(Cl)cc2[nH]c1=O)C(O)c1cccc([N+](=O)[O-])c1 (stereo not given)
*A* > 61.9 µM

*Q* Next record, please: CC1=CC2=C(C=O)C(=O)[C@](C)(O)[C@@H](O)C2=CO1
*A* > 100 µM

*Q* Next record, please: O=C1NCC2(CCN(CC3COc4ccccc4O3)CC2)N1c1ccccc1 (stereo not given)
*A* > 100 µM

*Q* Next record, please: CC(C)(C(=O)N(C(=O)N1CCN(c2ccccc2)CC1)S(=O)(=O)c1ccccc1)c1ccc(Cl)cc1
*A* > 100 µM

*Q* Next record, please: Nc1ccc(C(=O)NN2C(=O)C(Cl)C2c2ccc(O)cc2)cc1 (stereo not given)
*A* 35.2 µM

*Q* Next record, please: C[C@]12CC/C(=N\OCCN3CCCC3)C=C1CCC1C2CC[C@@]2(C)C1CC[C@]2(C)O (stereo not given in full)
*A* 35.8 µM

*Q* Next record, please: CCCCCCCCC#CCCCCCCC(F)C(=O)O (stereo not given)
*A* > 100 µM

*Q* Next record, please: O=C1C2C3C=CC(C2C(=O)N1CN1CCOCC1)C1C2C(=O)N(CN4CCOCC4)C(=O)C2C31 (stereo not given)
*A* > 66.8 µM

*Q* Next record, please: CCOC(=O)C1Cc2ccc(C)cc2C1=O (stereo not given)
*A* > 100 µM

*Q* Next record, please: N=c1oc2ccccc2cc1C(=O)Nc1ccccn1
*A* > 100 µM

*Q* Next record, please: CC(=O)OC1CCC2(C)C(=CCC3C2CCC2(C)C3CC3OC4(CCC(C)CN4)C(C)C32)C1 (stereo not given)
*A* > 100 µM

*Q* Next record, please: CCC(=O)NC(NNS(=O)(=O)c1ccc(C)cc1)(C(F)(F)F)C(F)(F)F
*A* > 100 µM

*Q* Next record, please: CCc1n(Cc2ccc3ccccc3c2)cc[n+]1Cc1ccc2ccccc2c1
*A* 2.02 µM

*Q* Next record, please: COc1cc2c(/C=C3/C(=O)Nc4cc(C)c(O)cc43)c(Cl)[nH]c2cc1C
*A* 5.87 µM

*Q* Next record, please: O=C(/C=C/c1cccc(Cl)c1)c1ccccc1
*A* 29.6 µM
